# Test system: EGF-induced DNA synthesis in quiescent HFF
# measurementNotes: Cell proliferation assay, inhibition of EGF-induced mitogenesis
# Type: cell-based, human
# cond: 3H-methylthymidine incorporation in quiescent HFF induced by 1 nM EGF
Positions of bridges follow the written chain, without caps; N, C: chain ends.
measuredQuantity: IC50 (nM)
Give a bare numeral; the unit nM is implied.

Task item: For the substance Ac-Cys-His-Ser-Gly-Tyr-Val-Gly-Ala-Arg-Cys-OMe (Ac-CHSGYVGARC-OMe; disulfide 1-10 (inferred)) [Peptide 3] , give its measured IC50 value.
Reply: 600
